Data credit: ChEMBL document CHEMBL1961873

TARGET SYSTEM: Serine/threonine-protein kinase MRCK beta (Homo sapiens) (UniProt Q9Y5S2);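 also: averaged inhibition values against MRCK beta, part of the GSK PKIS profiling dataset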
Sequence (Q9Y5S2 whole entry): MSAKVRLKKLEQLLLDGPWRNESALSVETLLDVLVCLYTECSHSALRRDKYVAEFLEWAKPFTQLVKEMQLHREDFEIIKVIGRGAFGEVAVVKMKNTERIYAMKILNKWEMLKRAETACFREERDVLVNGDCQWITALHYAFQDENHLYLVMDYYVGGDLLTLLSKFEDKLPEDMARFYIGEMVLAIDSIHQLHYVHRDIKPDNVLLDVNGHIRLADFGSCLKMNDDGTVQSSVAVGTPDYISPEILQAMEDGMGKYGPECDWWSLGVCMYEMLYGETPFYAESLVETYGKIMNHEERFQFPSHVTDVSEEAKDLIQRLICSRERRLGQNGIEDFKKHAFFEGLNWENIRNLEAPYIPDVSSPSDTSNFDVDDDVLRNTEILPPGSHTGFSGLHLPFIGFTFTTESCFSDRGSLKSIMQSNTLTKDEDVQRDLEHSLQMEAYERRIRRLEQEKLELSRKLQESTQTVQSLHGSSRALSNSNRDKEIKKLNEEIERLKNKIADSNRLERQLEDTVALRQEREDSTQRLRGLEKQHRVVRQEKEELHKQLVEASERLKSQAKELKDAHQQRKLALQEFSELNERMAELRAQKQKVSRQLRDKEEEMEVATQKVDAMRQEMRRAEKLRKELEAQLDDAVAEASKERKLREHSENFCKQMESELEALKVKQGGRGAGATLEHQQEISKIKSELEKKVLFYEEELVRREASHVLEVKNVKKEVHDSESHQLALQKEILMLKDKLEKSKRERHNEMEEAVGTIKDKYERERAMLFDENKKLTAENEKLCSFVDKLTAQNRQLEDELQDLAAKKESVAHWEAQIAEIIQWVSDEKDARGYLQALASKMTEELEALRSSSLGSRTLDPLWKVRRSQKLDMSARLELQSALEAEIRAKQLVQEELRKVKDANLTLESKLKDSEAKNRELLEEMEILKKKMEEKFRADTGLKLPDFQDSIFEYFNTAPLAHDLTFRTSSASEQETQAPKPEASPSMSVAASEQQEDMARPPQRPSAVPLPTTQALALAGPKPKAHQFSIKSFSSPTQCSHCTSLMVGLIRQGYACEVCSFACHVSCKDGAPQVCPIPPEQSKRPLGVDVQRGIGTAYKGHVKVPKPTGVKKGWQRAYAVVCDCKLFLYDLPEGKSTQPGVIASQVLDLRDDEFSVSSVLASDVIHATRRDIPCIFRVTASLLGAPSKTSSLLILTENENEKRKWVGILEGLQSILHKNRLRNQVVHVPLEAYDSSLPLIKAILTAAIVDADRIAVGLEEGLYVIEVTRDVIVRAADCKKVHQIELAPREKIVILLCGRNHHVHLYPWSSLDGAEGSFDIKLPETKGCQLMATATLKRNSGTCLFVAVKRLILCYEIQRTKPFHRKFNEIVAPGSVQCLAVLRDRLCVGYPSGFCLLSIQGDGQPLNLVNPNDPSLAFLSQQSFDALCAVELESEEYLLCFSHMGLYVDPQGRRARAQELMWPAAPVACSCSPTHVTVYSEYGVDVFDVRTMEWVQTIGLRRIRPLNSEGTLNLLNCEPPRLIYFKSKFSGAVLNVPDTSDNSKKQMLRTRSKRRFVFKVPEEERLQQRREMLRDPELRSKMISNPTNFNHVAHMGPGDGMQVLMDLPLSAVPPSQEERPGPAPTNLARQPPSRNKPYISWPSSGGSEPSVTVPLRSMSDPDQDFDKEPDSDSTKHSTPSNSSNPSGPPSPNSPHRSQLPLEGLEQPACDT
MEASUREMENT PARAMETERS: at 1 µM
MEASURED ENDPOINT: inhibition (%)
Numbers only here, please. The scale is %.

Query: If you can, please state the reported inhibition value of NC(=O)Cc1ccccc1Oc1nccc(-c2c(-c3ccc(F)cc3)ncn2C2CCNCC2)n1 .
Response: 1.05

Query: One more molecule: O=C1Nc2ccccc2/C1=C/Nc1ccc(-n2cncn2)cc1
Response: 1.08

Query: One more molecule: COc1cc2ncn(-c3cc(OCCc4ccccc4)c(C(N)=O)s3)c2cc1OC
Response: 1.01

Query: One more molecule: CN(c1ccc(NC(=O)Nc2c(Cl)cccc2Cl)cc1)c1ccnc(Nc2cccc(CS(C)(=O)=O)c2)n1
Response: 0.92

Query: One more molecule: CCS(=O)(=O)c1ccc(OC)c(Nc2ncc(-c3ccccc3Cl)o2)c1
Response: 0.3

Query: One more molecule: COc1cc(Nc2ncc3c(C)nc(-c4cccc(Oc5ccccc5)c4)n3n2)cc(OC)c1OC
Response: 1.86

Query: One more molecule: CS(=O)(=O)CCNCc1ccc(-c2ccc3ncnc(Nc4ccc(OCc5ccccc5)c(Br)c4)c3c2)o1
Response: -0.76

Query: One more molecule: O=C(NCC1CC1)c1ccc(-c2cccc(C(=O)NC3CC3)c2)cc1
Response: 1.09

Query: One more molecule: COc1ccc2ncn(-c3cc(O[C@H](C)c4ccccc4Cl)c(C(N)=O)s3)c2c1
Response: 3.24
